Cited source: ChEMBL document CHEMBL2073983

Biological target: UniProt Q9QY30
Sequence (Q9QY30 whole entry): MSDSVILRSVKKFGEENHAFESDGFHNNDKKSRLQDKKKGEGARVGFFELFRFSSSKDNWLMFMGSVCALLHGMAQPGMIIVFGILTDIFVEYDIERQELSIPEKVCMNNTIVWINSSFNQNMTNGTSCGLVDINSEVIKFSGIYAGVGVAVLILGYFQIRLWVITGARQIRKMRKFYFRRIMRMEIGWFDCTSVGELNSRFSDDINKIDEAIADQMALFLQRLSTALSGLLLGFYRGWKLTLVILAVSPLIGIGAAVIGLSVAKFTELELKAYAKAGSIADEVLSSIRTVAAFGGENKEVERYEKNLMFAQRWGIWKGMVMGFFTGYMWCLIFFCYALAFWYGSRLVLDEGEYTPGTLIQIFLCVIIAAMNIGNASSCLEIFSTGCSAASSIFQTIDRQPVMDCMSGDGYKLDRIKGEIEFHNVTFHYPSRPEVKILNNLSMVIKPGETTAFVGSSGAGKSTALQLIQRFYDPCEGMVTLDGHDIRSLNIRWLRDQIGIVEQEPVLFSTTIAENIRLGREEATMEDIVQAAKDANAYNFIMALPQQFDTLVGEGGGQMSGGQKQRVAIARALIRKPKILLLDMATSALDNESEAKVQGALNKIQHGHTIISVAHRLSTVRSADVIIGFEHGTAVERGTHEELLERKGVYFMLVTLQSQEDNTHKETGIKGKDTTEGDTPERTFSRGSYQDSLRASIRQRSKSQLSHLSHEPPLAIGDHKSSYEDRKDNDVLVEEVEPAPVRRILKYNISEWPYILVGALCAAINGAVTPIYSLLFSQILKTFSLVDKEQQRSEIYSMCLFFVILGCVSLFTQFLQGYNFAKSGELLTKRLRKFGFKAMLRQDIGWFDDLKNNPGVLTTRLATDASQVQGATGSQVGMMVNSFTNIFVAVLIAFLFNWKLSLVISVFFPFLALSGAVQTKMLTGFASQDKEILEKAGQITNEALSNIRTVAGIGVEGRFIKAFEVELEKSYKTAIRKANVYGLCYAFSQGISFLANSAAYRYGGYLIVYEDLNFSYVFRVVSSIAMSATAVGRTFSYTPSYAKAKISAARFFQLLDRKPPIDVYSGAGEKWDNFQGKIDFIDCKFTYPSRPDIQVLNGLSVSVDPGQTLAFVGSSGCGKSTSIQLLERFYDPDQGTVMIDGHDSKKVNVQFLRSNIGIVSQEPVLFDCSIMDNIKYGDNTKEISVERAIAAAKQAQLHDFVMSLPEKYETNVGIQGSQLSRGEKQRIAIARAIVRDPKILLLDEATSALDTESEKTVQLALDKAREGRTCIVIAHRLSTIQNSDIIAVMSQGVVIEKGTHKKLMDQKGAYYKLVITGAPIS
Experiment: TP_TRANSPORTER: inhibition of Taurochenodeoxycholate-stimulated ATPase activity (Rifamycin SV: 100 uM) in membrane vesicles from Bsep-expressing Sf9 cells
Type: functional, cell membranes, Membrane vesicle
Parameters: scale not given: the % may be the effect or the level left
Conditions: probe Taurochenodeoxycholate, read-out: Activity
property: activity at 100 µM (%)

molecule: CO[C@H]1/C=C/O[C@@]2(C)Oc3c(C)c(O)c4c(O)c(cc(O)c4c3C2=O)NC(=O)/C(C)=C\C=C\[C@H](C)[C@H](O)[C@@H](C)[C@@H](O)[C@@H](C)[C@H](OC(C)=O)[C@@H]1C [RIFAMYCIN]
numeric.readout: 29.8
